Tested on: UO-31
Assay: NCI tumour cell line growth inhibition, 48 h
Activity calls are given as the source filed them. Rule as the data show it: active = GI50 up to about 1.1 µM and inactive = higher.
observable: GI50

INSERT INTO measurements (molecule, tgt, observable, test_result) VALUES
  ('C[C@@H](NC(=O)[C@@H]1C[C@]1(C)COC(=O)c1cc([N+](=O)[O-])cc([N+](=O)[O-])c1)c1cccc2ccccc12', 'UO-31', 'GI50', '> 100 µM (inactive)'),
  ('CCOC(=O)c1cc(Br)c(-c2onc(C)c2Br)[nH]1', 'UO-31', 'GI50', '> 100 µM (inactive)'),
  ('O=C([C@H](O)[C@@H](O)c1cccc(Cl)c1)C12CC3CC(CC(C3)C1)C2', 'UO-31', 'GI50', '1.9 µM (inactive)'),
  ('CC(C)c1ccc(/C=C2\CSCC3=C2N=C(S)NC3c2ccc(C(C)C)cc2)cc1 (stereo not drawn)', 'UO-31', 'GI50', '70.6 µM (inactive)'),
  ('N#CC1=C(c2ccccc2)C(O)(c2ccccc2)NC1=O (stereo not drawn)', 'UO-31', 'GI50', '82.8 µM (inactive)');

Tested on UO-31, the item CN(C)C1(N(C)C)Oc2c(c(=O)n(C)c(=O)n2C)C(c2ccccc2Br)C1(F)F (stereo not drawn) showed GI50 equal to > 100 µM (inactive)

Tested on UO-31, the item Cn1c(=O)c2c(nc3n(CC(O)CCl)c(=O)ccn23)n(C)c1=O (stereo not drawn) showed GI50 equal to 37.5 µM (inactive)

Tested on UO-31, the item Cc1ccc(Nc2nc(C)c(C(/C=C/c3ccc(/C=C/C(=N/NC(=O)C[n+]4ccccc4)c4sc(Nc5ccc(C)cc5[N+](=O)[O-])nc4C)cc3)=N\NC(=O)C[n+]3ccccc3)s2)c([N+](=O)[O-])c1 showed GI50 equal to 46.5 µM (inactive)

----------
Tested on: RXF 393
Assay: NCI tumour cell line growth inhibition, 48 h
The source made the active and inactive calls. No stated cut-off is given here; in the data, active = GI50 up to about 1.1 µM and inactive = higher. Where a SMILES comes first, the peptide text is derived from it. The star is where a group is joined. Boc = CC(C)(C)OC(=O)*; OBn = c1ccc(CO*)cc1
Please answer using one outcome listed in Yes for active, No for inactive

Examples from the recorded data:
INSERT INTO measurements (compound, cat) VALUES
  ('COC(=O)C(Cc1ccccc1)OC(=O)C(N)CC(=O)O (centres undefined)', 'No'),
  ('CON(C)c1nc(N)c(C#N)c(C#N)c1C#N', 'No'),
  ('COc1cccc(/N=C/c2cc(OC)c(OC)c(OC)c2)c1', 'No'),
  ('CC(NC(=O)C(Cc1ccccc1)NC(=O)C(Cc1ccccc1)NC(=O)OC(C)(C)C)C(=O)OCc1ccccc1 (stereo not drawn) (Boc-Phe-Phe-Ala-OBn; configuration not given here)', 'No'),
  ('C[C@]12CC[C@H](O)CC1=CC[C@@H]1C2CC[C@]2(C)c3n[nH]nc3CC12 (some centres undefined)', 'No'),
  ('O=C1c2cnccc2Cc2cccc3c2N1c1ccccc1S3', 'No'),
  ('COc1ccc2c(c1)CC[C@@H]1C2CC[C@]2(C)C(=O)N(C)C(=O)CC12 (some centres undefined)', 'No'),
  ('COc1cc(/C=C\c2ccc(SC)cc2)cc(OC)c1OC', 'Yes'),
  ('O=C1OC(c2ccccc2)=N/C1=C/C=C/c1ccco1', 'No'),
  ('CC1(C)OCC(C2OC(=O)C(OCc3ccccc3)=C2OCc2ccccc2)O1 (centres undefined)', 'No');

[ask] Name the outcome recorded for CC(=O)OC1=C2CC[C@@H]3C(CC[C@@]4(C)C3CC[C@@H]4OC(C)=O)[C@@]2(C)CC(C#N)C1=O (some centres undefined) in the assay.
[reply] No

[ask] Name the outcome recorded for COc1ccc(OC)c(-c2cc(=O)c3c(OC)c(OC)c(OC)c(OC)c3o2)c1 in the assay.
[reply] No

[ask] Name the outcome recorded for O=C1C[C@H]2[C@H](c3ccc(Br)cc3)[C@H]3C(=O)c4ccccc4NC(=O)[C@@H]3[C@@]2(O)c2ccccc2N1 in the assay.
[reply] No

[ask] Name the outcome recorded for CN(C(=O)[C@H](NC(=O)OCc1ccccc1)c1ccccc1)C1CCCCC1N1CCCC1 (some centres undefined) in the assay.
[reply] No

[ask] Name the outcome recorded for CSCCCNC(=O)c1csc(-c2csc(CCN)n2)n1 in the assay.
[reply] No

[ask] Name the outcome recorded for CC(=O)O[C@H]1CC[C@@]2(C)C(=CC[C@@H]3[C@@H]2CC[C@]2(C)c4nc(Cl)ccc4C[C@@H]32)C1 in the assay.
[reply] No

[ask] Name the outcome recorded for CC(C)OC(=O)c1ccc(CCc2cc(O)c(Br)cc2O)cc1 in the assay.
[reply] No

[ask] Name the outcome recorded for COc1ccc(C2OC(=O)c3ccc4ccccc4c32)c(C)c1 (centres undefined) in the assay.
[reply] No

[ask] Name the outcome recorded for COc1ccc(CNc2nc3ccccc3nc2C(=O)O)cc1 in the assay.
[reply] No

[ask] Name the outcome recorded for CC(C)C12Cc3c(ccc4ccccc34)OC1(C)Oc1ccc3ccccc3c1C2 (centres undefined) in the assay.
[reply] No
